tested on: retinoic acid receptor (α, β and γ); test: Transactivation of retinoic acid receptors; type: cell-based; conditions: compared to prior art compounds 39 and 40
PROPERTY: selectivity of transactivation among RAR α, β and γ

INSERT INTO measurements (compound, recorded_result) VALUES
  ('CN(C(=O)Nc1ccc(C(=O)O)cc1)c1ccc2c(c1)C(C)(C)CCC2(C)C [Compound 40, reference compound]', 'pan-agonists'),
  ('CC1(C)CCC(C)(C)c2cc(NC(=O)Nc3ccc(C(=O)O)cc3)ccc21 [Compound 39, reference compound]', 'pan-agonists');
